target: NDM-1 (Klebsiella pneumoniae, UniProt C7C422); test: biochemical; assay type: biochemical; details: fluorescence assay with CCF2-FA substrate; read-out: NDM-1 IC50
Sequence (C7C422 whole entry, looked up, species assumed): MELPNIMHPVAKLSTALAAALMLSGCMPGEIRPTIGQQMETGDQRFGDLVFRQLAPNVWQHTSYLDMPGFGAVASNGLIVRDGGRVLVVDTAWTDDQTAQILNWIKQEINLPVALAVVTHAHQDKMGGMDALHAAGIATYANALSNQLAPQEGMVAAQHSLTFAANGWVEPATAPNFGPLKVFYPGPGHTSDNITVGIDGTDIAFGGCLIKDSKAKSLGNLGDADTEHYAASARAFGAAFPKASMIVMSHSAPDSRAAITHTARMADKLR
valueKind: IC50 (nM)

1) C[C@H]1NC(=O)O[C@H]1c1ccc(-c2ccnc(S(N)(=O)=O)c2-c2nnn[nH]2)cc1 (racemic)    7.75
2) CC(C)(C)OC(=O)N1CCN(c2ccc(-c3cccc(S(N)(=O)=O)c3-c3nn[nH]n3)cc2)CC1    3.69
3) NS(=O)(=O)c1cccc(Cc2ccccc2)c1-c1nnn[nH]1    18.9
4) NS(=O)(=O)c1c(C(F)(F)F)ccc(N2CCCC3(CCNCC3)C2)c1-c1nnn[nH]1    33.9
5) NS(=O)(=O)c1c(C(F)(F)F)ccc(N2CCC(N3CCNCC3)C2)c1-c1nnn[nH]1 (centres unmarked)    366
6) NS(=O)(=O)c1cccc(-c2ccc(CC3OC(=O)NC3=O)cc2)c1-c1nn[nH]n1 (centres unmarked)    17.1
7) COc1cncc(-c2cccc(S(N)(=O)=O)c2-c2nn[nH]n2)n1    42.2
8) NS(=O)(=O)c1nccc(-c2ccc(N3CCOCC3)nc2)c1-c1nn[nH]n1    94.7

* * *

tested on: Serratia marcescens expressing IMP-1 (CL5741); experiment: Antibiotic potentiation activity: synergistic concentration (MITC95) with imipenem, OD600 growth; type: cell-based; conditions: concentration giving 95% inhibition of bacterial growth
valueKind: Serratia marcescens expressing IMP-1 (CL5741) MITC95 (µM)

1. NS(=O)(=O)c1cccc(C2CCCCC2)c1-c1nnn[nH]1    1.563
2. Nc1nnc(C2CCN(c3ccnc(S(N)(=O)=O)c3-c3nnn[nH]3)CC2)s1    12.5
3. NS(=O)(=O)c1cccc(-c2cnc(C3(O)CCC3)s2)c1-c1nn[nH]n1    100
4. NS(=O)(=O)c1cccc(C#CCC2CNCCO2)c1-c1nn[nH]n1 (centres unmarked)    75
5. C[C@H]1NC(=O)O[C@H]1c1ccc(-c2ccnc(S(N)(=O)=O)c2-c2nnn[nH]2)cc1 (racemic)    15.63
6. NS(=O)(=O)c1nccc(-c2ccc(C3CCNC3)cc2)c1-c1nnn[nH]1 (centres unmarked)    3.125
7. NS(=O)(=O)c1nccc(N2CCC(N3CCCC3)CC2)c1-c1nnn[nH]1    75

* * *

target: UniProtKB P52699; assay: biochemical; type: biochemical; details: IMP-1 enzyme, CCF2-FA substrate; read-out: IMP-1 IC50
I'd appreciate it if you marked entries MET when IC50 is lower than 20 nM and NOT MET when it is not.

1. N#Cc1ccc2ncc(-c3cccc(S(N)(=O)=O)c3-c3nnn[nH]3)n2c1    NOT MET
2. NS(=O)(=O)c1c(C(F)(F)F)ccc(-c2ccc(N3CCNCC3)cc2)c1-c1nnn[nH]1    MET
3. NS(=O)(=O)c1c(CC2CCNCC2)ccc(-c2ccc(C3CN(CCO)C3)cc2)c1-c1nn[nH]n1    NOT MET
4. NS(=O)(=O)c1c(C(F)(F)F)ccc([C@H]2CC[C@H](NC3CCC4(CCNCC4)CC3)CC2)c1-c1nnn[nH]1    NOT MET
5. NCC(CN)c1ccc(-c2cccc(S(N)(=O)=O)c2-c2nnn[nH]2)cc1    NOT MET
6. Nc1ccc(-c2ccc(C(F)(F)F)c(S(N)(=O)=O)c2-c2nnn[nH]2)nc1    MET
7. NS(=O)(=O)c1c(C(F)(F)F)ccc(-c2cccc(C3CCNC3)c2)c1-c1nnn[nH]1 (stereo not drawn)    NOT MET
8. NCCN1CCC(Cc2ccc(-c3ccc(C4CNC4)cc3)c(-c3nn[nH]n3)c2S(N)(=O)=O)CC1    NOT MET
9. Nc1nc(-c2ccc(-c3ccc(C(F)(F)F)c(S(N)(=O)=O)c3-c3nnn[nH]3)cc2)cs1    MET
10. NS(=O)(=O)c1c(C(F)(F)F)ccc(C2CCCc3sc(C(=O)O)nc32)c1-c1nnn[nH]1 (stereo not drawn)    NOT MET
11. CC(=O)NC1CCN(c2ccc(-c3cccc(S(N)(=O)=O)c3-c3nnn[nH]3)cn2)C1 (stereo not drawn)    NOT MET
12. NC[C@H]1CC[C@H](Cc2ccc(-c3ccc(N)nc3)c(-c3nnn[nH]3)c2S(N)(=O)=O)CC1    MET
13. NC[C@H]1CC[C@H](c2ccc(CC3CCNCC3)c(S(N)(=O)=O)c2-c2nn[nH]n2)CC1 [Example 590]    NOT MET
14. NS(=O)(=O)c1c(C(F)(F)F)ccc(N2CCN3C(=O)OCC3C2)c1-c1nnn[nH]1 (stereo not drawn)    NOT MET
15. NS(=O)(=O)c1c(C(F)(F)F)ccc(-c2ccc(C3CCN(CC4CCCCN4)CC3)cc2)c1-c1nnn[nH]1 (stereo not drawn)    MET

* * *

Examples of compounds with documented IC50 follow.
biological target: VIM-1 (Pseudomonas aeruginosa (strain ATCC 15692 / DSM 22644 / CIP 104116 / JCM 14847 / LMG 12228 / 1C / PRS 101 / PAO1), UniProt A0A0F7KYQ8); assay: Enzyme activity: determination of IC50, fluorescence assay with CCF2-FA substrate (VIM-1); format: biochemical; conditions: VIM-1 enzyme, CCF2-FA fluorescence assay; read-out: VIM-1 IC50
valueKind: IC50 (nM)

1) Nc1cnc(-c2cccc(S(N)(=O)=O)c2-c2nnn[nH]2)cn1 [Example 402]    349
2) Cc1ccc(-c2cc(-c3cccnc3)cc(S(N)(=O)=O)c2-c2nn[nH]n2)cc1 [Example 293]    232
3) Nc1ccnc2ccc(-c3ccc(C(F)(F)F)c(S(N)(=O)=O)c3-c3nnn[nH]3)cc12 [Example 479]    0.373
4) Cc1ccc(-c2cc(-c3cccc(C(N)=O)c3)cc(S(N)(=O)=O)c2-c2nn[nH]n2)cc1 [Example 295]    126
5) NS(=O)(=O)c1c(CC[C@H]2CC[C@@H](N)CC2)ccc(-c2ccc(C3CCNCC3)cc2)c1-c1nn[nH]n1 [Example 462]    8.13
6) C[N+]1(C)CC(c2ccc(-c3ccc(C(F)(F)F)c(S(N)(=O)=O)c3-c3nn[nH]n3)cc2)C1 [Example 435]    2.37
7) N=C(N)c1nc2c(-c3ccc(C(F)(F)F)c(S(N)(=O)=O)c3-c3nnn[nH]3)cccc2s1 [Example 482]    0.194
8) NS(=O)(=O)c1c(C(F)(F)F)ccc(CC[C@H]2CC[C@@H](N)CC2)c1-c1nn[nH]n1 [Example 432]    4.72
9) CC(O)C1CCN(c2ccnc(S(N)(=O)=O)c2-c2nnn[nH]2)CC1 (stereo not shown) [Example 244]    125
10) NC(=O)C1CCN(Cc2ccc(-c3cccc(S(N)(=O)=O)c3-c3nnn[nH]3)cc2)C1 (stereo not shown) [Example 337]    321
11) NS(=O)(=O)c1cccc(-c2ccc(OC3CCNCC3)cc2)c1-c1nnn[nH]1 [Example 316]    67.7
12) Nc1ncc(-c2ccc(C(F)(F)F)c(S(N)(=O)=O)c2-c2nnn[nH]2)cc1F [Example 476]    0.263
13) NS(=O)(=O)c1c(C(F)(F)F)ccc(N2CCC(c3ccc(CO)cc3)CC2)c1-c1nn[nH]n1 [Example 450]    1.8
14) NS(=O)(=O)c1cccc(-c2ccc(CN3CNC(=O)C3)cc2)c1-c1nnn[nH]1 [Example 342]    80.4
15) CC1(C)CCN(Cc2ccc(-c3cccc(S(N)(=O)=O)c3-c3nnn[nH]3)cc2)C1 [Example 346]    408
16) NS(=O)(=O)c1cccc(-c2ccc3cnccc3c2)c1-c1nnn[nH]1 [Example 408]    14.9

* * *

Examples of compounds with documented pIC50 follow.
molecular target: IMP-1 (Serratia marcescens); assay: biochemical; type: biochemical; settings: IMP-1 enzyme, CCF2-FA substrate; read-out: IMP-1 IC50
Sequence (P52699 whole entry, looked up): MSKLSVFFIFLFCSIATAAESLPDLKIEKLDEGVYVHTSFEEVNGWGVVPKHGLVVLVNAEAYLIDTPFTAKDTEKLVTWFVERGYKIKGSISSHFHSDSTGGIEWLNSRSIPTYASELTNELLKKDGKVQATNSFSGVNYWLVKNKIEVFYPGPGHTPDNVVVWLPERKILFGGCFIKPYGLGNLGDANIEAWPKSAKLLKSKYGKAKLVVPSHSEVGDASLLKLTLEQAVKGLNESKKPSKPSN
pIC50: −log10 of the molar value.
valueKind: pIC50

1. COCc1cc(CCc2ccc(C(F)(F)F)c(S(N)(=O)=O)c2-c2nn[nH]n2)cnc1N    7.34
2. NC1CC(N[C@H]2CC[C@H](c3ccc(C(F)(F)F)c(S(N)(=O)=O)c3-c3nnn[nH]3)CC2)C1 (stereo partly shown) [Example 694]    7.73
3. NS(=O)(=O)Cc1cccc(-c2ccc(C(F)(F)F)c(S(N)(=O)=O)c2-c2nnn[nH]2)c1    8.52
4. Nc1nc2c(-c3ccc(C(F)(F)F)c(S(N)(=O)=O)c3-c3nnn[nH]3)cccc2s1    9.00
5. NCC[C@H]1CC[C@@H](c2ccc(C(F)(F)F)c(S(N)(=O)=O)c2-c2nnn[nH]2)CC1    8.26
6. NC1CC(N[C@H]2CC[C@H](c3ccc(C(F)(F)F)c(S(N)(=O)=O)c3-c3nnn[nH]3)CC2)C1 (stereo partly shown) [Example 702]    7.60
7. NCc1ncc(CCc2ccc(C(F)(F)F)c(S(N)(=O)=O)c2-c2nn[nH]n2)cc1N    8.44
